Source of measurements: PubChem BioAssay

biological target: Pro-neuregulin-1, membrane-bound isoform (Homo sapiens) (UniProt Q02297); experiment: NRG1 binders on small-molecule microarrays, primary screen, psychiatric disease protein project, biochemical, small-molecule microarray, fluorescence 635/667 (AID 1075); conditions: NRG1 binding, 635 nm fluorescence, higher = more signal;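 note: score combines 667 nm spot fluorescence with signal to noise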
Sequence (Q02297 whole entry, looked up, canonical isoform): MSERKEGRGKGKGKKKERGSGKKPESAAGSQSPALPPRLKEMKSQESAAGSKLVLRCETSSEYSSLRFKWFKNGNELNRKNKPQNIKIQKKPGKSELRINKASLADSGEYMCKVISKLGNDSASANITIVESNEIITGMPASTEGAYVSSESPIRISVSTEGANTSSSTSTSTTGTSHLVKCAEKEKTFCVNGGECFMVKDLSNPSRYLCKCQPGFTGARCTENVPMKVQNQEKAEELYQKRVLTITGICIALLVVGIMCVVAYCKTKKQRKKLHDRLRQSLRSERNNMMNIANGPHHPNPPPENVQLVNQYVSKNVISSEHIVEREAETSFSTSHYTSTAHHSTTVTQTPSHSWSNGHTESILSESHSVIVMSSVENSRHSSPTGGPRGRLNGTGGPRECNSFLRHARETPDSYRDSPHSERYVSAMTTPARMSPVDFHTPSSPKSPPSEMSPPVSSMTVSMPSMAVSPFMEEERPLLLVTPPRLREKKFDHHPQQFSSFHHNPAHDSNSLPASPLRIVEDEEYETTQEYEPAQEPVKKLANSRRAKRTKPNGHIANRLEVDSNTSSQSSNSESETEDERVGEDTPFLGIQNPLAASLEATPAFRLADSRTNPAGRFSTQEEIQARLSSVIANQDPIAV
Here the recorded composite z-score is given for each entry.
measured.metric: composite z-score

[[record]]
compound = "C[C@@H](c1ccccc1)N1C(=O)[C@H]2[C@H]3[C@H](O)C=CC(=O)[C@@H]3CC[C@H]2C1=O"
measured_metric = "composite z-score"
recorded_value = 0.185

[[record]]
compound = "[N-]=[N+]=Nc1ccccc1C[C@@]1(C(N)=O)N=C(c2ccc(OCCCO)cc2)O[C@@H]1c1ccccc1"
measured_metric = "composite z-score"
recorded_value = 1.05

[[record]]
compound = "C#CCCCON=C1C[C@@H](O)[C@@H](O)[C@@H]2[C@@H]3C(=O)N(CCC(=O)OCC)C(=O)[C@@H]3CC[C@@H]12"
measured_metric = "composite z-score"
recorded_value = 0.107

[[record]]
compound = "CCN(CC)c1ccc(N2CC=CC34O[C@@H]5/C=C\\CCC(C)OC(=O)C5[C@H]3C(=O)N(CCCO)[C@@H]4C2=O)cc1 (stereo not given in full)"
measured_metric = "composite z-score"
recorded_value = 0.63

[[record]]
compound = "CN(C)C(=O)[C@@]1(Cc2ccccc2)N=C(c2ccc(OCCCO)cc2)O[C@H]1c1ccccc1CN=[N+]=[N-]"
measured_metric = "composite z-score"
recorded_value = 1.96


---

Reported composite z-score values for a set of compounds
test: small-molecule microarray binders of probe aWnt5a, primary screen, biochemical, biotinylated probe, 635/667 nm fluorescence (AID 1113); details: higher = more signal;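 note: score merges 667 nm fluorescence intensity with signal-to-noise per printed feature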
measured.metric: composite z-score

[[record]]
compound = "CN1C(=O)C2C=CC(C(O)C(c3ccccc3)c3ccccc3)N(NC(=O)OC(C)(C)C)C2C1=O (stereo not given)"
measured_metric = "composite z-score"
recorded_value = 0.306

[[record]]
compound = "O=C1[C@H]2[C@H]3[C@H](O)[C@H](O)CC(=NOCc4ccccc4)[C@H]3CC[C@H]2C(=O)N1c1ccc(F)cc1F"
measured_metric = "composite z-score"
recorded_value = -0.123

[[record]]
compound = "Cc1ccc(S[C@]2(C(=O)O)CC(=O)N(Cc3ccccc3)[C@@H]2c2ccc(CO)cc2I)cc1"
measured_metric = "composite z-score"
recorded_value = -0.118

[[record]]
compound = "COC(=O)[C@@H]1CC[C@H](C)[C@@H](c2ccc(C)cc2)N1C(=O)c1ccc(C=NOC[C@@H](O)COCc2ccco2)cc1"
measured_metric = "composite z-score"
recorded_value = -0.21

[[record]]
compound = "CO[C@@H]1COC(=O)CC=C[C@@H](C)[C@@H]2C=C[C@H](O)[C@@H](COC(=O)CCC[C@H]1C)O2"
measured_metric = "composite z-score"
recorded_value = -0.0721

[[record]]
compound = "O=C1[C@H]2[C@H]3[C@H](O)[C@H](O)CC(=NOCc4ccccc4)[C@H]3CC[C@H]2C(=O)N1c1cccc(Oc2ccccc2)c1"
measured_metric = "composite z-score"
recorded_value = 0.0145

[[record]]
compound = "[N-]=[N+]=NCc1ccccc1[C@@H]1OC(c2ccc(OCCCO)cc2)=N[C@]1(Cc1ccccc1)C(=O)N1CCOCC1"
measured_metric = "composite z-score"
recorded_value = 0.141

[[record]]
compound = "COC(=O)C1=CCC(c2cccc(Cl)c2)O1 (stereo not given)"
measured_metric = "composite z-score"
recorded_value = -0.0286

[[record]]
compound = "CC(C)CON=C1C[C@@H](O)[C@@H](O)[C@@H]2[C@@H]3C(=O)N(C[C@@H]4CCCO4)C(=O)[C@@H]3CC[C@H]12"
measured_metric = "composite z-score"
recorded_value = -0.178

[[record]]
compound = "COC(=O)[C@H](C)NC(=O)CCC1CC(OC(=O)NCCc2ccc(F)cc2)CC2(CCCC(COC(=O)NCCc3ccc(Cl)cc3)O2)O1 (stereo not given in full)"
measured_metric = "composite z-score"
recorded_value = -0.224


---

molecular target: Focal adhesion kinase 1 (Homo sapiens) (UniProt Q05397); assay: small-molecule microarray binders of FAK, primary screen, biochemical, 635/667 nm fluorescence, BSA, DTT (AID 1130); conditions: PTK2 binding, 635 nm fluorescence, higher = more signal;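 note: composite of spot emission at 667 nm and signal to noise over triplicate slides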
Sequence (Q05397 whole entry, looked up): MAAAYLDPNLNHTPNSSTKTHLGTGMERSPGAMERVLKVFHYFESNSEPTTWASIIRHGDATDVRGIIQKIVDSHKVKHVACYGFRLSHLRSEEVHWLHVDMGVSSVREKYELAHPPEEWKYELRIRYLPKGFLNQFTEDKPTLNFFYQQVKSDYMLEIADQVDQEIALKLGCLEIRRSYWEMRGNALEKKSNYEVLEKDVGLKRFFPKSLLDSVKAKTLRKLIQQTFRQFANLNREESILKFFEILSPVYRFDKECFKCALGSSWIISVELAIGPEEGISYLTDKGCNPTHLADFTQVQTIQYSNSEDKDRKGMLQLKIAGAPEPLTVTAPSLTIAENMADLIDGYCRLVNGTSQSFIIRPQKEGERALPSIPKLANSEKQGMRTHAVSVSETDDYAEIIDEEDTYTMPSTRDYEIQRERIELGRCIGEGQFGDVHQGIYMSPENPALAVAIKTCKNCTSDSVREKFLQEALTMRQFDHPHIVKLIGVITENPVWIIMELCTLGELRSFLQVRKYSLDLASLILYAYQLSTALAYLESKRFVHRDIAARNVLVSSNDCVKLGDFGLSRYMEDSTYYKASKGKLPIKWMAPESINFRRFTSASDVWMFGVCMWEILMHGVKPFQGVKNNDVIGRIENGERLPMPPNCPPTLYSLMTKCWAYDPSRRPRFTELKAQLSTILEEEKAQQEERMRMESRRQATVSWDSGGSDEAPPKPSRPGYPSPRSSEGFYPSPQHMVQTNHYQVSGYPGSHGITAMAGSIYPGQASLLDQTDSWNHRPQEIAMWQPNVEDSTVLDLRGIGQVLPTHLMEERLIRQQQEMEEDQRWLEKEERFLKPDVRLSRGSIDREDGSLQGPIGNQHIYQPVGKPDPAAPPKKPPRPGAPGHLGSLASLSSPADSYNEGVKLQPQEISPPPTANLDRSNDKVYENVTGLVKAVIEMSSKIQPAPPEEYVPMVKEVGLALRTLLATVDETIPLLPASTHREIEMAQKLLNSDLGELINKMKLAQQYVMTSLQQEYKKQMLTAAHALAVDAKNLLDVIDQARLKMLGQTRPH
measured.metric: composite z-score

[[record]]
input_smiles = "COc1ccc(-c2nc3c(c4c2C[C@H](C)OC4)CN(CCC(C)C)CC3)cc1"
measured_metric = "composite z-score"
recorded_value = 0.233

[[record]]
input_smiles = "C#C[C@@H](CC)O[Si](C#Cc1ccc(Oc2ccccc2)cc1)(C(C)C)C(C)C"
measured_metric = "composite z-score"
recorded_value = -0.0378

[[record]]
input_smiles = "COc1ccc(COC(=O)NN=C2C[C@@H](O)[C@@H](O)[C@@H]3[C@@H]4C(=O)N(Cc5ccc6c(c5)OCO6)C(=O)[C@@H]4CC[C@@H]23)cc1"
measured_metric = "composite z-score"
recorded_value = 0.256


---

target: Torsin-1A-interacting protein 2 (Homo sapiens); assay: LULL1 binders on small-molecule microarray, primary screen, cell lysate, human LULL1 lysate, 635/667 nm fluorescence (AID 1092); settings: hLULL1 lysate binding, 635 nm fluorescence, higher = more signal;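 note: probe is lysate of COS7 cells overexpressing human LULL1; score merges per-feature 667 nm fluorescence with signal-to-noise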
measured.metric: composite z-score

[[record]]
compound = "C#C[C@@H]1Oc2ccccc2S(=O)(=O)N2CCC[C@H]12"
measured_metric = "composite z-score"
recorded_value = -0.875

[[record]]
compound = "CCOC(=O)[C@H](CC(C)C)NC(=O)CCC1CC(OC(=O)NCc2cccc3ccccc23)CC2(CCCC(COC(=O)NCCN3CCOCC3)O2)O1 (stereo partly specified)"
measured_metric = "composite z-score"
recorded_value = 2.36

[[record]]
compound = "O=C(NN=C1C[C@@H](O)[C@@H](O)[C@@H]2[C@@H]3C(=O)N(c4cccc(Oc5ccccc5)c4)C(=O)[C@@H]3CC[C@@H]12)OCc1ccccc1"
measured_metric = "composite z-score"
recorded_value = 1.46

[[record]]
compound = "C=C(/C(=C/C[C@@H](OC(=O)c1ccncc1)c1ccc(OCCO)cc1)c1cnc2ccccc2c1)C(C)C"
measured_metric = "composite z-score"
recorded_value = 0.65

[[record]]
compound = "Cc1ccc(S[C@]2(C(=O)NCC(F)(F)F)CC(=O)N(Cc3ccccc3Cl)[C@@H]2c2ccc(CO)cc2I)cc1"
measured_metric = "composite z-score"
recorded_value = 2.34

[[record]]
compound = "O=C(NN=C1C[C@@H](O)[C@@H](O)[C@@H]2[C@@H]3C(=O)N(c4ccc(F)cc4F)C(=O)[C@@H]3CC[C@@H]12)OCc1ccccc1"
measured_metric = "composite z-score"
recorded_value = 1.03


---

test: HepG2 cell viability effects, profiling panel, calcein-AM fluorescence, 48 h, basal (AID 1164); details: higher = more signal; note: test concentration not given here
Entry flag: 1.0 if z-score reaches 0.6; 0.0 if it does not.

[[record]]
input_smiles = "C=CCOC(=O)[C@H]1[C@@H]2C(=O)O[C@@H](c3ccccc3)[C@@H](c3ccccc3)N2[C@@H](c2ccc(OCCOC(=O)[C@H]3C[C@H]4C(=O)N[C@@H](Cc5ccccc5)C(=O)N4[C@H]3c3ccc(O)cc3)cc2)[C@]12C(=O)Nc1ccccc12"
class_label = 1.0

[[record]]
input_smiles = "COC(=O)CC=C[C@@H](C)[C@@H](C=NO[C@H](C)c1cn([C@@H]2COC[C@H]2O)nn1)OC"
class_label = 0.0

[[record]]
input_smiles = "CC(=O)OC[C@H]1O[C@@H](ON=C[C@@H](C)[C@H](OCc2ccccc2)C(C)C)[C@H](OC(C)=O)[C@@H](OC(C)=O)[C@@H]1OC(C)=O"
class_label = 0.0

[[record]]
input_smiles = "COc1ccccc1CN1C(=O)c2ccccc2[C@@H](C(=O)NCC(F)(F)F)[C@@H]1c1ccc(CO)cc1"
class_label = 1.0

[[record]]
input_smiles = "CO[C@H]1COC(=O)[C@@H]2CCCN2C(=O)[C@@H](C)COC(=O)CC=C[C@@H]1C"
class_label = 0.0


---

assay: binders of probe aFSTL3 on microarray, primary screen, stem cell growth factor project, biochemical, small-molecule microarray, fluorescence 635/667 (AID 1064); details: higher = more signal;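 note: measures binding of the biotinylated anti-FSTL3 antibody to printed compounds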
Property: composite z-score; scope: individual compounds
measured.metric: composite z-score

[[record]]
compound = "Cc1cc2c(nc1C)CCCN2CC(C)ON=C1[C@H]2CCn3c(=O)n(-c4ccccc4)c(=O)n3[C@H]2[C@H](O)[C@@H]2O[C@H]12 (stereo not given in full)"
measured_metric = "composite z-score"
recorded_value = -0.335

[[record]]
compound = "CCOC(=O)[C@H](Cc1ccccc1)NC(=O)CCC1CC(OC(=O)NCCc2ccc(F)cc2)CC2(CCCC(COC(=O)NCC(c3ccccc3)c3ccccc3)O2)O1 (stereo not given in full)"
measured_metric = "composite z-score"
recorded_value = -0.183

[[record]]
compound = "COc1cccc([C@H]2Oc3ccc(OC)cc3C(=NO[C@H](C)c3cn([C@@H]4COC[C@H]4O)nn3)[C@@H]2O)c1"
measured_metric = "composite z-score"
recorded_value = -0.183

[[record]]
compound = "O=C1O[C@@H](c2ccccc2)[C@@H](c2ccccc2)N2[C@@H](c3ccc(OCCO)cc3)[C@]3(C(=O)Nc4ccccc43)[C@@H](C(=O)N3CCN(c4ncccn4)CC3)[C@H]12"
measured_metric = "composite z-score"
recorded_value = 0.0612

[[record]]
compound = "CO[C@H]1O[C@H](CO)[C@@H](OC(=O)Nc2ccc3c(c2)OCO3)[C@H](OC(=O)Nc2ccccc2-c2ccccc2)[C@@H]1OC(=O)Nc1ccccc1-c1ccccc1"
measured_metric = "composite z-score"
recorded_value = 0.0442

